Biological target: T1, 4H3010-bA
T1 chain: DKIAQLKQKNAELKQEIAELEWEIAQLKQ
Experiment: two-hybrid library CCNG1;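 also: natural log of median RNA to DNA barcode read ratio; higher means stronger binding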
ASSAY READOUT: interaction score

Examples with their reported interaction score follow.
DKIAQLKQEIAELKQKNAELEWEIAQLEQ [4H2673-bA]; 2
DKIAQLKQENAELEQEIAELKWKIAQLKQ [4H2702-bA]; 2.07
DEIAQLEQEIAELKQKIAELKWKNAQLKQ [4H112-bA]; 1.69

[1] DEIAQLEQENAELEQKIAELKWEIAQLKQ [4H170-bA]
[2] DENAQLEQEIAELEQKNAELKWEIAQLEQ [4H1081-bA]
INPUT: Looking only at measured interaction score, which entry is lower, 1 or 2 ? Mark your selection by writing its label.
OUTPUT: 2
